# STUDY TARGET: T1, Recombinant soluble extracellular domain of human MerTK (human, UniProt Q12866 21-505)
# T1 construct: SPR analyte; also called hMerTK
# T1 sequence: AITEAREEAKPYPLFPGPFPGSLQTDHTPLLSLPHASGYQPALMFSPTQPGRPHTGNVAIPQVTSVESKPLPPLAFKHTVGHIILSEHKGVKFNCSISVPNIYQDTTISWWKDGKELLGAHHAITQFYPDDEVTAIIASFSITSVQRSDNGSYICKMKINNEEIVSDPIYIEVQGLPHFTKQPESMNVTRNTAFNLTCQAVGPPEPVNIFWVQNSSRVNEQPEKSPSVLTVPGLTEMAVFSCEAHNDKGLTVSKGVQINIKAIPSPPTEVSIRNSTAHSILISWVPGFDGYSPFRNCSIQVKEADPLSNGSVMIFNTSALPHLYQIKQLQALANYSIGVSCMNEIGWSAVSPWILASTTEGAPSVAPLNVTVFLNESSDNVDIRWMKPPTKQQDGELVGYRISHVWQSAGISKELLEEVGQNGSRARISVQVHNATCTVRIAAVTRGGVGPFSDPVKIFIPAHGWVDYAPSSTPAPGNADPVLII
# TEST DETAILS: SPR, mAb captured, soluble MerTK ECD as analyte, 37 C
PROPERTY NAME: koff (s⁻¹)
The reply should contain only the number, in s⁻¹.

// query Request the reported koff associated with HuMAb 25J80 (antibody, human IgG1, kappa, V domains shown, Human anti-hMerTK mAb, Bin 2, derived from HuMAb 25B10 by optimization) VH: QVQLVQSGAEVKKPGASVKVSCKTSGRTFIRYYMHWVRQAPGQGLEWMGIIWPNGDQTTYAQKFQGRVTMTRDTSTSTVYMELSSLRSEDTAVYYCATTYKYAMDVWGQGTTVTVSS VL: EIVLTQSPGTLSLSPGERATLSCRASQSVRSNYLAWYQQKPGQAPRLLIYGASSRATGIPDRFSGSGSGTDFTLTISRLEPEDFAVYYCQQYESPPRTFGQGTKVEIKR
// result 0.00123

// query Request the reported koff associated with HuMAb 22I16 (antibody, human IgG1, kappa, V domains shown, Human anti-hMerTK mAb, Bin 1; also called 22116) VH: EVQLVESGGGLVQPGGSLRLSCAASGFTFSSYSMNWVRQAPGKGLEWVSYIISGSDTIFYADSVKGRFTISRDNAKNSLYLQMNSLRDEDTAVYYCARDETVVRGVINYFDYWGQGTLVTVSS VL: AIQLTQSPSSLSASVGDRVTITCRSSQGISSALAWYQQKPGKAPKLLIYDASSLESGVPSRFSGSGSGTDFTLTISSLQPEDFATYYCQQFISYPTFGQGTRLEIKR
// result 0.000775

// query Request the reported koff associated with HuMAb 1B4 (antibody, human IgG1, kappa, V domains shown, Human anti-hMerTK mAb, Bin 1) VH: QLQLQESGPGLVKPSETLSLTCAVSGYSISSGNYWGWIRQSPGKGLEWIGSVDHSGSTYYSPSLKSRVTISVDTSKNQFSLKLNSVTAADTADYYCARNTMIRGVMDWFDPWGQGTLVTVSS VL: AIQLTQSPSSLSASVGDRVTITCRASQGISSALAWYQQKPGKAPKVLIYDASSLESGVPSRFSGSGSGTDFTLTISSLQPEDFATYYCQQFRSYPTFGQGTKVEIKR
// result 0.00844
